target: D(1A) dopamine receptor (Homo sapiens) (UniProt P21728); assay: Allosteric Agonists of the Human D1 Dopamine Receptor: qHTS; details: HEK293 T-REx D1 cells, calcium flux, agonist mode; at 2 µM
Sequence (P21728 whole entry, looked up): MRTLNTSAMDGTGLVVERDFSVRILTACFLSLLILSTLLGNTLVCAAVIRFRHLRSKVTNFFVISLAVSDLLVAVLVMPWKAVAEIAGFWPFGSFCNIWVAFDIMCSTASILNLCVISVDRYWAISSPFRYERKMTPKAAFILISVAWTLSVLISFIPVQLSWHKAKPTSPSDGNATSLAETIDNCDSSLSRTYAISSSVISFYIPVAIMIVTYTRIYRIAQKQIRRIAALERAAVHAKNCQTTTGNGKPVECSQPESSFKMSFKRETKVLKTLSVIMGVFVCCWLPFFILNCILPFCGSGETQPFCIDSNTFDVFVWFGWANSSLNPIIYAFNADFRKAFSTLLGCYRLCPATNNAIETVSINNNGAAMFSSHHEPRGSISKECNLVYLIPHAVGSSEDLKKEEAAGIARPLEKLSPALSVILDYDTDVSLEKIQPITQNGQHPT
Among all 360,000 compounds or so, about 3,700 (1%) were called active. No stated cut-off is given here; in the data, active means activation above about 30%; inactive means the rest. What follows is part of a selection rich in actives, with near analogues and random picks from the rest.
Select the matching outcome among active, inactive

Returns: the outcome recorded for Cc1nn(C)cc1N1C(=O)c2cccc3c(N)ccc(c23)C1=O in this assay.
active

Returns: the outcome recorded for N#C/C=C(/c1ccc(F)cc1)N1CCOCC1 in this assay.
inactive

Returns: the outcome recorded for CCOC(=O)c1ccc(NC(=O)CSc2nc3c([nH]c4ccccc43)c(=O)n2C)cc1 in this assay.
inactive

Returns: the outcome recorded for CN1C(=O)c2cccc3c(N)ccc(c23)C1=O in this assay.
active
